Taken from PubChem BioAssay (NCI).

Measured GI50 of individual entries
System: HT29 colon
Experiment: NCI tumour cell line growth inhibition, 48 h
Measured property: GI50

Smiles str	Assay value
O=C(COc1ccc(/C=C2\CSc3ccccc3C2=O)cc1)Nc1nccs1	4.48 µM
CC(=O)/C=C/c1ccc(C#Cc2ccccc2)s1	12 µM
CC(=O)O[C@H](C[C@H](C(C)C)N(C)C(=O)[C@@H](NC(=O)[C@H]1CCCCN1C)C(C)C)c1nc(C(=O)N[C@@H](Cc2ccccc2)C[C@H](C)C(=O)O)c(CCOCc2ccccc2)s1	< 0.001 µM
O=[N+]([O-])c1ccc2c(c1)C(c1ccccc1Cl)=Nc1cn[nH]c1N2	19.2 µM
Cc1cc(I)cc(CN(C)CCCN2CCOCC2)c1O	16.5 µM
Cn1cc(C2=C(c3cn(CCCCCN)c4ccccc34)C(=O)NC2=O)c2ccccc21	7.39 µM
O=C(/C=C/c1cc(CN2CCOCC2)c(O)c2ncccc12)c1cc(CN2CCOCC2)c(O)c2ncccc12	0.0695 µM

---

Tested on: SNB-19 CNS
Assay: NCI tumour cell line growth inhibition, 48 h
Measured property: TGI

> print(dat)
                                   molecule  experimental.system  assay.value
1         N#C/C(=C\n1ccc(=O)[nH]c1=S)C(N)=O           SNB-19 CNS     > 100 µM
2   COc1ccc2[nH]c3c4c(ccc3c2c1)C(=O)C=CC4=O           SNB-19 CNS    > 79.1 µM
3  Nc1ccn(C2(CO)C=C(CO)C(O)C2O)c(=O)n1 (stereo not drawn)           SNB-19 CNS    > 25.8 µM

---

Test system: HL-60(TB) leukemia
Experiment: NCI tumour cell line growth inhibition, 48 h; in the data active means GI50 below about 0.43 µM; inactive means the rest
Labels: active, inactive

> print(dat)
                                 smiles.str  experimental.system       cat
1  CCn1c(CO)nn(-c2cc(O[C@@H](C)C(F)(F)F)c(C(=O)Nc3c(F)cccc3Cl)cc2F)c1=O   HL-60(TB) leukemia    active
2           Cc1cc(I)cc(CN(C)CCCN2CCOCC2)c1O   HL-60(TB) leukemia  inactive
3        O=C(Nc1ccc(Br)cc1)c1ccc(Cl)c(Cl)c1   HL-60(TB) leukemia  inactive
4      COc1ccc(Nc2c3ccccc3nc3occ(Cl)c23)cc1   HL-60(TB) leukemia    active

---

Measured TGI of individual entries
System: RXF 393 renal
Assay: NCI tumour cell line growth inhibition, 48 h
Measured property: TGI

> print(dat)
                                   molecule  assay.value
1               CCCCCC(=O)NC(=S)Nc1nn[nH]n1     > 100 µM
2  O=C1CCCCC(=O)OC2(CCCCC2=O)CC1 (stereo not drawn)     > 100 µM
3  CN1NC(=Nc2ccccc2)Sc2c1cnn(-c1ccccc1)c2=O     > 100 µM

---

Tested on: UACC-257 melanoma
Assay: NCI tumour cell line growth inhibition, 48 h
Measured property: GI50

> print(dat)
                                 smiles.str  measured.property  assay.value
1  Cc1cn2c(/C=C3\C(=O)N(C)c4ccc(O)cc43)c(C)nc2s1               GI50     > 100 µM
2  [Au+].[Au+].[Au+].[c-]1nccn1Cc1ccccc1.[c-]1nccn1Cc1ccccc1.[c-]1nccn1Cc1ccccc1               GI50      3.71 µM
3  C1C[OH+]CCNCC[OH+]CC[OH+]CCN1.[Cl-].[Pt+4]               GI50     > 100 µM
4  CC(C)S(=O)(=O)c1ccccc1Nc1nc(Nc2cccc(NC(=O)CN)c2)ncc1Cl               GI50     0.997 µM

---

System: SK-MEL-28 melanoma
Test: NCI tumour cell line growth inhibition, 48 h
Measured property: TGI

> print(dat)
                                    compound  measured.property  assay.value
 1  O=C(NCCCCCCNCc1cccc2ccccc12)Nc1cccc2ccccc12                TGI     > 100 µM
 2  C[C@]12CCc3nc(Nc4ccccc4)sc3C1=CC[C@@H]1[C@@H]2CC[C@]2(C)/C(=N/NC(N)=S)CC[C@@H]12                TGI     > 100 µM
 3        O=C(Nc1ccc(Br)cc1)c1ccc(Cl)c(Cl)c1                TGI     > 100 µM
 4  N=C(N)c1ccc(N=Nc2c(O)ccc3c2[nH]c2ccccc23)cc1                TGI    > 70.9 µM
 5  CCOC(=O)/C1=C(\C)N(c2ccc(C)cc2)C(=O)c2ccccc2C(=O)c2c(OC(C)=O)ccc(OC(C)=O)c21                TGI      12.2 µM
 6  O=C(COc1ccc(/C=C2\CSc3ccccc3C2=O)cc1)Nc1nccs1                TGI      24.1 µM
 7  COc1ccc(C(=O)COc2cccc(/C=C3\Oc4ccc5ccccc5c4C3=O)c2)cc1                TGI      28.7 µM
 8  COC(=O)/C(C#N)=C1\CCC(O)N1 (configuration not stated)                TGI     > 100 µM
 9   COC(=O)[C@@H]1CCCN1CCN1CCC[C@H]1C(=O)OC                TGI     > 100 µM
10  Cc1cn(C2CC(n3cc(Cn4cc(Br)c(=O)[nH]c4=O)nn3)C(CO)O2)c(=O)[nH]c1=O (configuration not stated)                TGI     > 100 µM
11  O=c1[nH]/c(=C/c2ccc(OCc3ccccc3)cn2)c(=O)[nH]/c1=C/c1ccc(O)cc1                TGI     > 100 µM
12  CCC1(C)N=C(c2cnccn2)NN1c1ccc(Cl)cc1 (configuration not stated)                TGI     > 100 µM
13  O=c1[nH]c2cc(Cl)ccc2nc1/C(=N\O)C(O)c1ccc(Cl)cc1Cl (configuration not stated)                TGI     > 100 µM
14                      c1cc2nnnn2nc1N1CCCC1                TGI     > 100 µM
15  CNC(=O)Oc1ccc(-c2cn3cc(OC(=O)NC)ccc3n2)cc1                TGI     > 100 µM
16  COc1cc2ccc3c4cc(OC)c(OC(C)C)cc4cnc3c2cc1OC                TGI     > 100 µM
17  CC1CCOc2ccc(cc2)C=Nc2ccc(cc2)CCc2ccc(cc2)N=Cc2ccc(cc2)OCC1 (configuration not stated)                TGI     > 100 µM
18  CC(=O)O[C@H]1C#C/C=C\C#CC[C@@H]2C(=O)N[C@@H]12                TGI     > 100 µM
19  O=c1nc2c(c(-c3ccccc3Cl)[nH]1)COC/C2=C\c1ccccc1Cl                TGI     > 100 µM
20  CC1=NN(c2ccc(S(=O)(=O)O)cc2)C2(C1)SCC(=O)N2c1nc2ccccc2s1 (configuration not stated)                TGI     > 100 µM
21  O=C1OC2(OC2c2ccccc2)c2ccccc21 (configuration not stated)                TGI     > 100 µM
22           Cc1cc(I)cc(CN(C)CCCN2CCOCC2)c1O                TGI      32.3 µM
23  COc1cccc(/C(COc2ccc3c(c2)oc(=O)c2cc(OC)ccc23)=N/O)c1                TGI     > 100 µM
24  Cc1cc(C)[n+](CCOc2ccc(/C(=C(/Cl)c3ccccc3)c3ccccc3)cc2)c(C)c1                TGI      3.58 µM
25  O=C(CSc1nnc(Cc2ccccc2)o1)Nc1ccc([N+](=O)[O-])cc1                TGI     > 100 µM
26        Nc1ccc2[nH]c3c(-c4ccccc4)nccc3c2c1                TGI     > 100 µM
27  COc1ccc(-c2ccc(/C=N/n3c(C)n[nH]c3=S)o2)c([N+](=O)[O-])c1                TGI     > 100 µM
28  O=C(Nc1ccc(-c2ccccc2)cc1)C1CCN(S(=O)(=O)c2ccccc2Cl)CC1                TGI     > 100 µM
29                    CN(O)C(=O)c1cccc(Cl)c1                TGI     > 100 µM
30  Cc1cc(N/N=C/c2nc(-c3ccc(Br)cc3)oc2C)c2cc(Br)ccc2n1                TGI      6.26 µM
31                               C1CNCCNCCN1                TGI     > 100 µM
32   O=C(O)CC[N+]1=CCC(c2ccccc2)(c2ccccc2)O1                TGI     > 100 µM
33  COc1cc2cccc(N=Cc3cccc(OC)c3OC(C)C)c2cc1OC                TGI      66.9 µM
34                 Nc1nc(CCl)nc(Nc2ccccc2)n1                TGI      33.2 µM
35         C=CCCC(=O)CC(O)(C(F)(F)F)C(F)(F)F                TGI     > 100 µM
36  CCOP(=O)(OCC)c1c(C(=O)OC)cc(=O)[nH]c1-c1ccc(C)cc1                TGI      34.7 µM
37  COc1cc2ncn(-c3cc(OCCc4ccccc4)c(C(N)=O)s3)c2cc1OC                TGI      > 25 µM
